Value source: ChEMBL document CHEMBL1129106

# procedureDetails: Volume of distribution in dog
# Type: ADME, organism-based, Canis lupus familiaris
# runParameters: in vivo

| cpdSmiles | Vd |
| --- | --- |
| CC(C)Cc1ccc([C@H](C)Oc2ccc(C(=O)c3cn(CCCC(=O)O)c4ccccc34)cc2)cc1 | 0.9 L/kg |

###

# targetDesc: 3-oxo-5-alpha-steroid 4-dehydrogenase 1 (Homo sapiens) (UniProt P18405)
# Sequence (P18405 whole entry): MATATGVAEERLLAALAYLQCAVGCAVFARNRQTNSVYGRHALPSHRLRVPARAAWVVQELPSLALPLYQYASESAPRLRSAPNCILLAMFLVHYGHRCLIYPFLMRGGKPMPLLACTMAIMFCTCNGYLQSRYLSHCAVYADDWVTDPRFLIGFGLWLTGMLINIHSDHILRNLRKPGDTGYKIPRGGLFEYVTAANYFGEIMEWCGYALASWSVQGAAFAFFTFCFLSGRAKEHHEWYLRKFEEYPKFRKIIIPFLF
# procedureDetails: Compound was tested in vitro for its inhibitory activity against human 5Alpha-R1 expressed as potency.

| compound | Potency [nM] |
| --- | --- |
| CC(C)Cc1ccc([C@H](C)Oc2ccc(C(=O)c3cn(CCCC(=O)O)c4ccccc34)cc2)cc1 | 40 |
| CC(C)Cc1ccc([C@@H](C)Oc2ccc(C(=O)c3cn(CCCC(=O)O)c4ccccc34)cc2)cc1 | 574 |
| CC(C)Cc1ccc(C(C)Oc2ccc(C(=O)N3CC(CCCC(=O)O)c4ccccc43)cc2)cc1 (stereo not drawn) | 113 |
